Assayed Target: 5-hydroxytryptamine receptor 2A (Rattus norvegicus, UniProt P14842)
Sequence (P14842 whole entry): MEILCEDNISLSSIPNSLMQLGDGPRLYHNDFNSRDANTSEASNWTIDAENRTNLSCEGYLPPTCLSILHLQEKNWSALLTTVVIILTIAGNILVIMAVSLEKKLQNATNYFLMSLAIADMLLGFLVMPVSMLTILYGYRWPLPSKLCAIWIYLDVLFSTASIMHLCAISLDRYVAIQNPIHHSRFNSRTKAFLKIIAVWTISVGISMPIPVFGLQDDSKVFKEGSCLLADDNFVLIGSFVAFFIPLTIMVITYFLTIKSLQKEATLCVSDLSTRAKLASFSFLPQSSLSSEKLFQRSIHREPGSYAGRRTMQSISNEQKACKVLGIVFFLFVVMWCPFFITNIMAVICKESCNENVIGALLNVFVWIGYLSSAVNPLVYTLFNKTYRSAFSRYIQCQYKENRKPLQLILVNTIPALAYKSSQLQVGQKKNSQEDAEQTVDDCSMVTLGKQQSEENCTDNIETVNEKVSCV
Measurement Protocol: Affinity was evaluated as inhibition constant for serotonin 5-hydroxytryptamine 2A receptor
// assign yes (1) if Ki falls strictly below 70 nM, else no (0) (ties count as no (0))

Prompt: Is Ki strictly under 70 nM for the entry "CN1CCC(C2=Cc3cc(Cl)ccc3Cc3ccccc32)CC1" ?
Completion: yes (1)

Prompt: Is Ki strictly under 70 nM for the entry "CN1CCN(C2=Nc3cc(Cl)ccc3N(C)c3ccccc32)CC1" ?
Completion: no (0)

Prompt: Is Ki strictly under 70 nM for the entry "C[C@@H]1c2ccccc2C=C(C2=CCN(C)CC2)c2ccccc21" ?
Completion: no (0)

Prompt: Is Ki strictly under 70 nM for the entry "C[C@H]1c2ccccc2C=C(C2=CCN(C)CC2)c2ccccc21" ?
Completion: no (0)

Prompt: Is Ki strictly under 70 nM for the entry "CC1CCN(C2=Cc3cc(Cl)ccc3Cc3ccccc32)CC1" ?
Completion: no (0)

Prompt: Is Ki strictly under 70 nM for the entry "C=C1c2ccccc2C=C(C2=CCN(C)CC2)c2ccccc21" ?
Completion: yes (1)

###

Assayed Target: 5-hydroxytryptamine receptor 2C (Rattus norvegicus)
Sequence (P08909 whole entry): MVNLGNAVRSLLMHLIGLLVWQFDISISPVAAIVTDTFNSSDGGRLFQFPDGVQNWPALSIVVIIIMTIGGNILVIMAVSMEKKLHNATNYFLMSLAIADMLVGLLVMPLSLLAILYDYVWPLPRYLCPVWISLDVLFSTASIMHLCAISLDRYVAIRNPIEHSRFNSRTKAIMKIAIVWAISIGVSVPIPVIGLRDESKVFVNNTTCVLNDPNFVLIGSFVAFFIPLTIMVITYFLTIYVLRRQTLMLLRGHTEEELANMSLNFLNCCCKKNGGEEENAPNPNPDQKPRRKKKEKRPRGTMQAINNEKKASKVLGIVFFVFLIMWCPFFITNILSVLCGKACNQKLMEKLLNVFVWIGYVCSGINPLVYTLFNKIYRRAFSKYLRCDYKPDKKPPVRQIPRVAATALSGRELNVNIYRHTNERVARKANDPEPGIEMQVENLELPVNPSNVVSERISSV
Measurement Protocol: Affinity was evaluated by inhibition of [125I]LSD binding to NIH 3T3 cells transfected with cloned rat 5-hydroxytryptamine 2C receptor
Type: cell-based, NIH3T3
Assignment: determine reported Ki for the given compounds.
Please respond with the number in nM and leave the unit unwritten.

The recorded Ki for "CN1CCN(C2=Nc3cc(Cl)ccc3Oc3ccccc32)CC1" is 19

The recorded Ki for "C=C1c2ccccc2C=C(N2CCN(C)CC2)c2ccccc21" is 18

The recorded Ki for "CC(C)=C1c2ccc(Cl)cc2C=C(N2CCN(C)CC2)c2ccccc21" is 370

The recorded Ki for "CC(C)=C1c2ccccc2C=C(N2CCN(C)CC2)c2ccccc21" is 390

The recorded Ki for "CN1CCN(C2=Cc3ccccc3Oc3ccccc32)CC1" is 6

The recorded Ki for "CN1CCN(C2=Cc3cc(Cl)ccc3Cc3ccccc32)CC1" is 7

The recorded Ki for CC1c2ccccc2C=C(N2CCN(C)CC2)c2ccccc21 (stereo unspecified) is 36

The recorded Ki for "CN1CCN(C2=Cc3ccccc3Cc3ccc(Cl)cc32)CC1" is 6

The recorded Ki for "C/C=C1/c2ccccc2C=C(N2CCN(C)CC2)c2ccccc21" is 110

The recorded Ki for "CN1CCN(C2=Cc3cc(Cl)ccc3Oc3ccccc32)CC1" is 6

The recorded Ki for "CN1CCN(C2=Cc3ccccc3Oc3ccc(Cl)cc32)CC1" is 3

###

Assignment: determine reported Ki for the given molecules.
Assayed Target: Serotonin 3 (5-HT3) receptor (Rattus norvegicus, UniProt P35563+Q9JJ16)
Sequence (P35563 whole entry): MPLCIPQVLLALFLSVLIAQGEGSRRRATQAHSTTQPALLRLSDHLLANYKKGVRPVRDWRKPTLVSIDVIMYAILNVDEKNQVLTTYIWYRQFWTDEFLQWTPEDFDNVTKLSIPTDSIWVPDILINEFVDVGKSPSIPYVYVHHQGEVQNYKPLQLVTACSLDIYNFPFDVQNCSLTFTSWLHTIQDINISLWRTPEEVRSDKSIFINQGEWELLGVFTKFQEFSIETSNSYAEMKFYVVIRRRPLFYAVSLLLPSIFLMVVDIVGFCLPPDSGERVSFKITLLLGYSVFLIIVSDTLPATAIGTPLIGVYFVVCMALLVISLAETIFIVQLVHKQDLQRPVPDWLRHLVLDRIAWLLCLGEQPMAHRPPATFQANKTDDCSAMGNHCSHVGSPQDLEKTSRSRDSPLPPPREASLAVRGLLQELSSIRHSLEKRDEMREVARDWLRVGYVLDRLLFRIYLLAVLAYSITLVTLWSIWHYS
Sequence (Q9JJ16 whole entry): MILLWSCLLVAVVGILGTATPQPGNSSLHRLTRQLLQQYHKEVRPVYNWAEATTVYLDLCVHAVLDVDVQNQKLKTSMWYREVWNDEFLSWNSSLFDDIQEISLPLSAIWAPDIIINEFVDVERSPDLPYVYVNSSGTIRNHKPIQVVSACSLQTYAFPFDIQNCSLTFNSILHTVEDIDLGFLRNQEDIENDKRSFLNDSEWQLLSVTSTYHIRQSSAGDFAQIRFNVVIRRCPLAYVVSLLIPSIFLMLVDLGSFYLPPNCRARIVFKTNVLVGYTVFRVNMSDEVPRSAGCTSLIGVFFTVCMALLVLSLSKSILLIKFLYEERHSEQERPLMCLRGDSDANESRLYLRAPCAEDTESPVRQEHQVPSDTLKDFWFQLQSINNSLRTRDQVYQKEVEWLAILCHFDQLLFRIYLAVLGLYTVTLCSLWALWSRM
Measurement Protocol: Affinity was evaluated by inhibition of [3H]GR-65630 binding to NG108-15 cell transfected with cloned rat 5-hydroxytryptamine 3 receptor
Type: cell-based
Please respond with the number in µM and leave the unit unwritten.

The recorded Ki for "CN1CCN(C2=Cc3ccccc3Oc3ccc(Cl)cc32)CC1" is 0.084

The recorded Ki for "CN1CCN(C2=Cc3cc(Cl)ccc3Cc3ccccc32)CC1" is 0.12

The recorded Ki for "CN1CCN(C2=Cc3ccccc3Cc3ccc(Cl)cc32)CC1" is 0.049

The recorded Ki for "CC(C)=C1c2ccc(Cl)cc2C=C(N2CCN(C)CC2)c2ccccc21" is 0.1

The recorded Ki for "C=C1c2ccccc2C=C(N2CCN(C)CC2)c2ccccc21" is 0.031

The recorded Ki for "CN1CCN(C2=Cc3ccccc3Oc3ccccc32)CC1" is 0.041

The recorded Ki for "CN1CCN(C2=Cc3cc(Cl)ccc3Oc3ccccc32)CC1" is 0.057

The recorded Ki for "C/C=C1/c2ccccc2C=C(N2CCN(C)CC2)c2ccccc21" is 0.035

The recorded Ki for "CN1CCN(C2=Nc3cc(Cl)ccc3Oc3ccccc32)CC1" is 0.039

The recorded Ki for "CC(C)=C1c2ccccc2C=C(N2CCN(C)CC2)c2ccccc21" is 0.081

###

Measurement Protocol: Ratio between Ki values of D2 and S-3 receptors
Quantity: Ratio
Keep the answer to the number alone.

The recorded Ratio for "CN1CCC(C2=Cc3cc(Cl)ccc3Cc3ccccc32)CC1" is 14

The recorded Ratio for "CC(C)=C1c2ccc(Cl)cc2C=C(N2CCN(C)CC2)c2ccccc21" is 6.9

The recorded Ratio for "CN1CCN(C2=Cc3ccccc3Oc3ccccc32)CC1" is 0.51

###

Measurement Protocol: Ratio between Ki values of D2 and S-3 receptors
Assignment: determine reported Ratio for the given compounds.
Keep the answer to the number alone.

The recorded Ratio for "CN1CCN(C2=Cc3ccccc3Oc3ccc(Cl)cc32)CC1" is 0.03

The recorded Ratio for "CC(C)=C1c2ccccc2C=C(N2CCN(C)CC2)c2ccccc21" is 3.6

The recorded Ratio for "C/C=C1/c2ccccc2C=C(N2CCN(C)CC2)c2ccccc21" is 21

The recorded Ratio for "C=C1c2ccccc2C=C(N2CCN(C)CC2)c2ccccc21" is 1.8

The recorded Ratio for "CN1CCN(C2=Cc3cc(Cl)ccc3Oc3ccccc32)CC1" is 0.15

The recorded Ratio for "CN1CCN(C2=Nc3cc(Cl)ccc3N(C)c3ccccc32)CC1" is 28

###

Assayed Target: D(4) dopamine receptor (Homo sapiens, UniProt P21917)
Sequence (P21917 whole entry): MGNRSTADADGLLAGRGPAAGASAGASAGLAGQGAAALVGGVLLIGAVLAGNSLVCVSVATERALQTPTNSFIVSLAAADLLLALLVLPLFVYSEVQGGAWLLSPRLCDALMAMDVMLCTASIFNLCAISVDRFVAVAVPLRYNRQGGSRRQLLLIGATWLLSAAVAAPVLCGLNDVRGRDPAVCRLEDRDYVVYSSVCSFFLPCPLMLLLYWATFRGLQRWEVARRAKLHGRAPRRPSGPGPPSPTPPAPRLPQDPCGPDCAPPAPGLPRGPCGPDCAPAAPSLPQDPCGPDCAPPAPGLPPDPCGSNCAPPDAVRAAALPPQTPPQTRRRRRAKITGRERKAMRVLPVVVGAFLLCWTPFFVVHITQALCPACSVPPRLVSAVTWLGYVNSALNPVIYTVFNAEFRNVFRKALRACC
Measurement Protocol: Affinity was evaluated by inhibition of [3H]-spiperone binding to COS cells transfected with human dopamine D-4 receptor
Assay type: cell-based
Assignment: determine reported pKi for the given molecules.
# pKi = -log10(concentration in molar units)

The recorded pKi for "C=C1c2ccccc2C=C(N2CCN(C)CC2)c2ccccc21" is 7.33

The recorded pKi for "CN1CCN(C2=Cc3ccccc3Oc3ccccc32)CC1" is 8.70

The recorded pKi for CC1c2ccccc2C=C(N2CCN(C)CC2)c2ccccc21 (stereo unspecified) is 7.92

The recorded pKi for "CN1CCN(C2=Cc3ccccc3Oc3ccc(Cl)cc32)CC1" is 9.27

The recorded pKi for "C/C=C1/c2ccccc2C=C(N2CCN(C)CC2)c2ccccc21" is 6.52

The recorded pKi for "CC(C)=C1c2ccccc2C=C(N2CCN(C)CC2)c2ccccc21" is 5.57

The recorded pKi for "CC(C)=C1c2ccc(Cl)cc2C=C(N2CCN(C)CC2)c2ccccc21" is 6.03

The recorded pKi for CN1CCN(C2=Nc3cc(Cl)ccc3Oc3ccccc32)CC1 [ISOLOXAPINE] is 7.64

The recorded pKi for "CN1CCN(C2=Cc3cc(Cl)ccc3Oc3ccccc32)CC1" is 9.05

The recorded pKi for "CN1CCN(C2=Cc3cc(Cl)ccc3Cc3ccccc32)CC1" is 5.54

The recorded pKi for CN1CCN(C2=Nc3ccccc3Oc3ccc(Cl)cc32)CC1 [LOXAPINE] is 8.31
